Source of measurements: paper PMC10397247

Biological target: T1, 4H3297-bA
T1 chain: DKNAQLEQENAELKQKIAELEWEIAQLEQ
Test: two-hybrid library CCNG1;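 further: natural log of median RNA to DNA barcode read ratio; higher means stronger binding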
test readout: interaction score

- binder: "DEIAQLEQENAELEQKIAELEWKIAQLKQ [4H166-bA]"
  interaction score: 1.92
- binder: "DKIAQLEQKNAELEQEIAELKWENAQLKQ [4H2444-bA]"
  interaction score: 0.252
- binder: "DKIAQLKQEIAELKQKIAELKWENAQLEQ [4H2667-bA]"
  interaction score: 0.0617
- binder: "DKIAQLKQKIAELEQKIAELKWENAQLEQ [4H2859-bA]"
  interaction score: -0.389
- binder: "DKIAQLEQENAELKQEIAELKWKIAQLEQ [4H2253-bA]"
  interaction score: 0.145

a: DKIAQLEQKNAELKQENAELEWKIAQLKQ [4H2518-bA]
b: DKNAQLEQENAELKQKIAELEWEIAQLEQ [4H3297-bA]
Exercise: Would you kindly point out which of a and b has the smaller interaction score figure? Kindly give the label for the entry you pick.
Key: a
(a: -0.628, b: 1.19)
